Reported solubility kinetic at 0.25 h is given for each of the following compounds.
assay: Kinetic solubility of compound in water sonicated for 15 mins by HPLC analysis
observable: solubility kinetic at 0.25 h

1. CC1(COc2ccc(OC(F)(F)F)c(F)c2)CCn2cc([N+](=O)[O-])nc2O1 (stereo not given)
0.95 µg/mL
2. CC1(COCc2ccc(OCc3ccccc3)cc2)Cn2cc([N+](=O)[O-])nc2S1(=O)=O (stereo not given)
< 0.1 µg/mL
3. O=[N+]([O-])c1cn2c(n1)OC[C@H](OCc1ccc(-c3ccc(C(F)(F)F)cc3Cl)cn1)C2
1 µg/mL
4. CC1(COc2ccc(OC(F)(F)F)c(Cl)c2)CCn2cc([N+](=O)[O-])nc2O1 (stereo not given)
0.5 µg/mL
5. CC1(COc2ccc(OC(F)(F)F)cc2)CCn2nc([N+](=O)[O-])nc2O1 (stereo not given)
9.5 µg/mL
